# Protocol Notes: True water solubility of base polyene antibiotics by DMSO dilution and ultra-violet spectrum
# Type: physicochemical
# Condition: water, base antibiotics; calculated from UV after ten fold dilution of saturated water solution with dimethyl sulfoxide; read-out: Solubility in water
Endpoint: solubility (µg/mL)
# number only, unit µg/mL dropped from output

-- ask Param item = C[C@@H]1[C@H](O)[C@@H](C)/C=C/C=C/C=C/C=C/C=C/C=C/C=C/[C@H](O[C@@H]2O[C@H](C)[C@@H](O)[C@H](N)[C@@H]2O)C[C@@H]2O[C@](O)(C[C@@H](O)C[C@@H](O)[C@H](O)CC[C@@H](O)C[C@@H](O)CC(=O)O[C@H]1C)C[C@H](O)[C@H]2C(=O)O [Amphotericin B, amphotericin B, reference compound] ; retrieve measured solubility.
-- reply 1.7
